Each recorded value in this set is attributed to PubChem BioAssay (NCI).

TGI for assorted compounds
# Test system: HCC-2998 colon
# protocolText: NCI tumour cell line growth inhibition, 48 h
Report as a plain number; the unit µM is understood.

[[record]]
compound = "CCOC(=O)C1OC(C2(C)OC3(OC4(C=CC3O)OC(C(C)C(=O)C(C)C(O)C(C)CC(C)c3c(Cl)cc(C)c(O)c3C(=O)O)C(C)CC4C)C(C)C2OC)CC1O (stereo not drawn)"
result = 0.264

[[record]]
compound = "COc1cc(/C=C/C(=O)c2c(C)nc3ccccc3c2C)ccc1OCCCOc1cc2c(cc1OC)C(=O)N1CCC[C@H]1C=N2"
result = 0.0386

[[record]]
compound = "O=[N+]([O-])c1cccc(C2ON2C2CCCCC2)c1 (stereo not drawn)"
result = 30.9

[[record]]
compound = "COc1ccc(/C=C2\\CCC(CNc3ccc(OC)cc3)C2=O)cc1 (stereo not drawn)"
result = 48.1

[[record]]
compound = "O=C(O)c1cn2c3c(cc(N4CCN(CCO)CC4)cc3c1=O)SCC2"
result = 93.3

[[record]]
compound = "Cc1noc2nnn(-c3ccc(Cl)cc3)c(=O)c12"
result = 9.7


Task: I would be grateful if you could share the reported TGI for CN1CCN(c2ccc3nc(-c4ccc5nc(-c6ccc(OCCC(C)(C)C)cc6)[nH]c5c4)[nH]c3c2)CC1 .
Output: 18.5

Task: What do you get for CN(C)c1ccc(Nc2cc(-c3cccc(OC(F)(F)F)c3)nc3ccc(N4CCCC4)cc23)cc1 ?
Output: 3.36

Task: What do you get for CC1(C)[C@@H](O[C@@H]2OC[C@@H](O[C@@H]3O[C@H](CO)[C@@H](O)[C@H](O)[C@H]3O[C@@H]3OC[C@@H](O)[C@H](O)[C@H]3O)[C@H](O)[C@H]2O[C@@H]2O[C@H](CO)[C@@H](O)[C@H](O)[C@H]2O)CC[C@]2(C)[C@H]3CC[C@]45OC[C@@]6(CC[C@](C)(C=O)C[C@H]64)[C@H](O)C[C@@]5(C)[C@]3(C)CC[C@@H]12 ?
Output: 1.75

Task: What do you get for CSc1c(C#N)c(N)nc2c(N=Nc3ccc(Cl)cc3)c(N)nn12 ?
Output: 14.8

----------
# System: HS 578T breast
# protocolText: NCI tumour cell line growth inhibition, 48 h
endpoint: GI50

Please review the following examples before continuing.
[[record]]
compound = "COc1ccc(Nc2c3ccccc3nc3ccccc23)cc1"
result = "5.26 µM"

[[record]]
compound = "CCC1CCc2nc3sc(C(=O)Nc4cccc(F)c4)c(N)c3cc2C1 (stereo not given)"
result = "> 100 µM"

[[record]]
compound = "COc1cc2c3c(n(CCCI)c(=O)c2cc1OC)-c1cc2c(cc1C3=O)OCO2"
result = "> 100 µM"


Task: I would be grateful if you could share the reported GI50 for COc1ccc(-c2nc3ccccn3c2/C=C/C(=O)c2cc(OC)c(OC)c(OC)c2)cc1 .
Output: 2.89 µM

Task: What do you get for Cc1cc(Cl)ccc1NC(=O)c1cc2ccccc2cc1O ?
Output: 1.31 µM

----------
# System: SK-MEL-28 melanoma
# protocolText: NCI tumour cell line growth inhibition, 48 h; in the data active = GI50 below about 0.43 µM; inactive = the rest
Log the outcome using a class from active, inactive

# count of solved cases: 3
[[record]]
compound = "O=C(NCc1ccc(Cn2c(=O)sn(-c3ccccc3)c2=O)cc1)OCc1ccc2c(Br)cc(Br)c(O)c2n1"
studytarget = "SK-MEL-28 melanoma"
group = "inactive"

[[record]]
compound = "CCN(C(=O)c1cc(F)ccc1Oc1cncnc1N1CC2(CCN(CC3CCC(NS(=O)(=O)CC)CC3)CC2)C1)C(C)C (stereo not given)"
studytarget = "SK-MEL-28 melanoma"
group = "inactive"

[[record]]
compound = "CC(=Nc1ccccc1)C1=C(O)C(Cc2ccccc2)NC1=O (stereo not given)"
studytarget = "SK-MEL-28 melanoma"
group = "active"


Task: Please share the test call associated with C=C1CCC2C(C)(C)CCC[C@]2(C)[C@H]1CO (stereo not given in full) .
Output: inactive

Task: What do you get for COC(=O)C1=C(C)NC(C)=C(C(=O)OC)C1/C=C(Cl)/C=C/c1ccccc1 ?
Output: inactive

Task: What do you get for CCCCCCCCCCCCCC[n+]1ccc2c(C)c3c(c(C)c2c1)c1cc(O)ccc1n3CC ?
Output: inactive

Task: What do you get for COc1cc(O)c(C(=O)/C=C/c2ccc(O)cc2)c(O)c1[C@@H]1C[C@H](CCc2ccc(O)cc2)O[C@H](c2ccc(O)cc2)C1 ?
Output: inactive

Task: What do you get for COc1cc(/C=C/C(=O)c2ccc(NC(=O)CN3CCN(c4cc5c(cc4F)c(=O)c(C(=O)O)cn5C4CC4)CC3)cc2)cc(OC)c1OC ?
Output: inactive

Task: What do you get for Fc1ccc(Nc2nc3nonc3nc2Nc2ccc(F)cc2)cc1 ?
Output: inactive

Task: What do you get for NC(=O)c1cc(-c2ccc(F)cc2)cc(-c2ccncc2)c1N ?
Output: inactive

Task: What do you get for C[C@@H](CO)[C@@H]1CCC=C2CC[C@]3(C)[C@H](CC[C@@H]4[C@@]5(C)CCCNC(C)(C)[C@@H]5CC[C@]43C)[C@H]21 ?
Output: inactive

Task: What do you get for COc1cc(Nc2ccnc(NCCCNc3ccnc4cc(Cl)ccc34)n2)cc(OC)c1 ?
Output: inactive

Task: What do you get for COc1cc2c(cc1C)NC(=O)/C2=C\c1cccc(Oc2ccccc2)c1 ?
Output: inactive

Task: What do you get for O=C(Nc1ccc2ncnc(Nc3ccc(Oc4cccc(F)c4)c(Cl)c3)c2c1)c1ccc(CNCCO)cc1 ?
Output: inactive

Task: What do you get for CC1(C)[C@@H](O[C@@H]2OC[C@@H](O[C@@H]3O[C@H](CO)[C@@H](O)[C@H](O)[C@H]3O[C@@H]3OC[C@@H](O)[C@H](O)[C@H]3O)[C@H](O)[C@H]2O[C@@H]2O[C@H](CO)[C@@H](O)[C@H](O)[C@H]2O)CC[C@]2(C)[C@H]3CC[C@]45OC[C@@]6(CC[C@](C)(C=O)C[C@H]64)[C@H](O)C[C@@]5(C)[C@]3(C)CC[C@@H]12 ?
Output: inactive
